- Study Target: Protein kinase C (PKC)
- Experiment: Inhibition of protein kinase C (PKC)
- Type: protein assay
Endpoint Label: IC50 (µM)

A selection of reference data follows.
| Chem Smiles | Study Target | Endpoint Unit | Recorded Result |
| --- | --- | --- | --- |
| COc1cc(Nc2nccc(-c3ccc(NCCN)nc3)n2)cc(OC)c1OC | Protein kinase C (PKC) | µM | 0.15 |
| COc1cc(Nc2nccc(-c3cccnc3)n2)cc(OC)c1OC | Protein kinase C (PKC) | µM | 1.4 |

[I] COc1cc(Nc2nccc(-c3ccc(N4CCNCC4)nc3)n2)cc(OC)c1OC
[II] CC[C@H]1CN(c2ccc(-c3ccnc(Nc4cc(OC)c(OC)c(OC)c4)n3)cn2)CCN1
Asked: Which value of IC50 is smaller, the one for I or the one for II ? Respond with the label that goes with your answer.
Given back: I
(I: 1.3 µM, II: 2.874 µM)
